# measured_target: recombinant BRD4 BD1 (Homo sapiens, UniProt O60885)
# Construct: recombinant BRD4 BD1 and BRD4 BD2 proteins
# assay_protocol: Competitive fluorescence-polarization (FP) binding assay, BRD4 BD1
# protocol_conditions: FP competitive binding; protein 10 nM, probe 1.5 nM; read-out: IC50 (nM) BRD4 BD1
Output Y for records whose IC50 is lower than 600 nM, N for records at or above 600 nM.

compound: Cc1nnc2n1-c1scc(Cc3ccccc3)c1COC2 [Cpd. No. 30]
measured_target: recombinant BRD4 BD1 (Homo sapiens, UniProt O60885)
qualitative_label: N

stdin: Regarding Cc1sc2c(c1Cc1cccc(Cl)c1)COCc1nnc(C)n1-2 [Cpd. No. 8] , kindly confirm whether its IC50 is beneath 600 nM.
stdout: Y

stdin: Is IC50 of C=C(C)c1sc2c(c1Cc1ccccc1)COCc1nnc(C)n1-2 [Cpd. No. 94] strictly below 600 nM?
stdout: N

stdin: Record Cc1nnc2n1-c1sc(C#Cc3ccc(N)nc3)c(Cc3ccccc3)c1COC2 [Cpd. No. 89] : is its IC50 strictly below 600 nM?
stdout: Y

stdin: Quick check: IC50 of Cc1sc2c(c1C1=CCCc3ccccc31)COCc1nnc(C)n1-2 [Cpd. No. 51] under 600 nM?
stdout: Y

stdin: Confirm or reject: IC50 of Cc1sc2c(c1Cc1ccccc1)CN(S(=O)(=O)CCc1ccccc1)[C@@H](C)c1nnc(C)n1-2 [Cpd. No. 26] lies strictly below 600 nM
stdout: N

stdin: Hello, I'm reviewing records and need to know if IC50 of Cc1nnc2n1-c1ccc(-c3cnn(CC(N)=O)c3)c(Cc3ccccc3)c1COC2 [Cpd. No. 76] is below 600 nM. Could you check?
stdout: N

stdin: Does CCNC(=O)N1Cc2c(sc(C)c2Cc2ccccc2)-n2c(C)nnc2[C@@H]1C [Cpd. No. 22] have IC50 strictly under 600 nM?
stdout: N

stdin: State whether 600 nM exceeds IC50 recorded for Cc1cc2c(s1)-n1c(C)nnc1COC2 [Cpd. No. 1] .
stdout: N

stdin: Bench note: check whether Cc1nnc2n1-c1ccc(C#C[Si](C)(C)C)c(Cc3ccccc3)c1COC2 [Cpd. No. 82] shows IC50 below 600 nM
stdout: Y

stdin: Take the compound Cc1sc2c(c1C1CCCc3ccccc31)COCc1nnc(C)n1-2 (stereo not shown) [Cpd. No. 54] and say whether its IC50 is less than 600 nM.
stdout: Y

stdin: Does the reported IC50 of Cc1sc2c(c1Cc1cccc(F)c1)COCc1nnc(C)n1-2 [Cpd. No. 100] stay below 600 nM?
stdout: Y

stdin: Regarding Cc1sc2c(c1Cc1ccccc1)CO[C@H](C)c1nnc(C)n1-2 [Cpd. No. 114] , kindly confirm whether its IC50 is beneath 600 nM.
stdout: Y

stdin: Problem: For the compound Cc1nnc2n1-c1sc(C#N)c(Cc3ccccc3)c1COC2 [Cpd. No. 110] , is IC50 under 600 nM?
stdout: N

stdin: In plain terms, does Cc1sc2c(c1Cc1ccccc1)CN(C(=O)OCc1ccccc1)[C@@H](C)c1nnc(C)n1-2 [Cpd. No. 12] come in under 600 nM for IC50?
stdout: Y

stdin: API: query returns whether the compound falls strictly under 600 nM in IC50. Query: Cc1sc2c(c1C1=CCc3ccccc31)COCc1nnc(C)n1-2 [Cpd. No. 53]
stdout: Y

stdin: I wonder whether CCOC(=O)CN1Cc2c(sc(C)c2Cc2ccccc2)-n2c(C)nnc2[C@@H]1C [Cpd. No. 25] has IC50 below 600 nM. Can you tell?
stdout: N

stdin: Given Cc1sc2c(c1Cc1ccccc1Cl)COCc1nnc(C)n1-2 [Cpd. No. 10] , is recorded IC50 strictly lower than 600 nM?
stdout: Y

stdin: For this compound, is IC50 lower than 600 nM? Cc1nnc2n1-c1sc(C3=CCOCC3)c(Cc3ccccc3)c1COC2 [Cpd. No. 95]
stdout: N
